# maps each entry to its inhibition at 10 µM
- MEASURED_ON: human hNET (Homo sapiens)
- Construct: expressed in transfected cells; host or cells: MDCK-Net6 (MDCK cells, stably transfected)
- METHOD: Norepinephrine (NE) uptake assay in MDCK-Net6 cells
- Assay type: cell-based
- MEASUREMENT_PARAMETERS: 10 μM test compound (stated in the cell), [3H]NE uptake
Where a name gives a salt, the structure may show the parent alone.
Give your result in % as a bare value.

CN1CCN(CC(c2ccc(-c3cccc(Cl)c3)cc2)C2(O)CCC2)CC1 (stereo not drawn) [Example 294, dihydrochloride]: 27.2
COc1ccc(C(CN2CCN(C)CC2)C2(O)CCCCC2)cc1-c1ccc(Cl)c(Cl)c1 (stereo not drawn) [Example 255, dihydrochloride]: 70.7

Now look at this one.
Consider the molecule shown here: CN1CCN(CC(c2ccc(-c3cccc(OC(F)(F)F)c3)cc2)C2(O)CCC2)CC1 (stereo not drawn) [Example 295, dihydrochloride] What is its recorded inhibition at 10 µM? 2

---

- MEASURED_ON: human hNET (Homo sapiens, UniProt P23975)
- Construct: expressed in transfected cells; host or cells: MDCK-Net6 (MDCK cells, stably transfected)
- Sequence (P23975 whole entry): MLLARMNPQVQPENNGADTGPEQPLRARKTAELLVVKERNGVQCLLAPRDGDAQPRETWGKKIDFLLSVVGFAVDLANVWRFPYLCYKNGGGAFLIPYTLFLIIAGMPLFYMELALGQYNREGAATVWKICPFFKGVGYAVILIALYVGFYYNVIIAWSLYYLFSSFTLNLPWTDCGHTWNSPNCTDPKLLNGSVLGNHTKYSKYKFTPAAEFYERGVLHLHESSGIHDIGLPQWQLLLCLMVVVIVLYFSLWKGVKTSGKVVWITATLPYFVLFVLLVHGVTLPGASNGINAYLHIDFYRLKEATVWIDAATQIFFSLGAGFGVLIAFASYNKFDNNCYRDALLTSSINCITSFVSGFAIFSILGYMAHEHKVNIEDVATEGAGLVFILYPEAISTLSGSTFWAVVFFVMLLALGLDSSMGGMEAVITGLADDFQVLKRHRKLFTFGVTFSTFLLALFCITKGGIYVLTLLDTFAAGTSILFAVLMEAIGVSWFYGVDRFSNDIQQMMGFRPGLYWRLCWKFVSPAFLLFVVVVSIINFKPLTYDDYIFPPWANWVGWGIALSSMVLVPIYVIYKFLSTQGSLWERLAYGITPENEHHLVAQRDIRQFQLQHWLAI
- METHOD: Norepinephrine (NE) uptake assay in MDCK-Net6 cells
- Type: cell-based
- MEASUREMENT_PARAMETERS: 1 μM test compound, [3H]NE uptake, read-out: % Inhibition @ 1 μM (hNET)
Where a name gives a salt, the structure may show the parent alone.
METRIC_NAME: inhibition at 1 µM (%)
Give your result in % as a bare value.

Sample answers from the record:
OC1([C@H](CN2CCNCC2)c2ccc(OCc3ccccc3)c(Cl)c2)CCCCC1 [Example 324, dihydrochloride]: 98.4
OC1(C(CN2CCNCC2)c2ccc(OC(F)(F)F)cc2)CCC1 (stereo not drawn) [Example 304, dihydrochloride]: 41
OC1(C(CN2CCNCC2)c2cccc(-c3ccc(F)c(F)c3)c2)CCCCC1 (stereo not drawn) [Example 147, dihydrochloride]: 13
CN1CCN(CC(c2ccc(OCc3ccccc3)c(F)c2)C2(O)CCCCC2)CC1 (stereo not drawn) [Example 414, dihydrochloride]: 96
COc1ccc(C(CN2CCNCC2)C2(O)CCCCC2)cc1OC(F)(F)F (stereo not drawn) [Example 402, dihydrochloride]: 42

Consider the compound shown here: COc1cc(C(CN2CCN(C)CC2)C2(O)CCCCC2)ccc1OCc1ccc(Br)cc1F (stereo not drawn) What is its recorded inhibition at 1 µM? 97

Consider the compound shown here: OC1(C(CN2CCNCC2)c2ccc(-c3ccsc3)cc2)CCCCC1 (stereo not drawn) [Example 174, dihydrochloride] What is its recorded inhibition at 1 µM? 2

Consider the compound shown here: CN1CCN(CC(c2cccc(OCc3ccccc3)c2)C2(O)CCC2)CC1 (stereo not drawn) [Example 115, dihydrochloride] What is its recorded inhibition at 1 µM? -10

---

- MEASURED_ON: human hNET (Homo sapiens, UniProt P23975)
- Construct: expressed in transfected cells; host or cells: MDCK-Net6 (MDCK cells, stably transfected)
- METHOD: Norepinephrine (NE) uptake assay in MDCK-Net6 cells
- Type: cell-based
- MEASUREMENT_PARAMETERS: 1 μM test compound, [3H]NE uptake, read-out: % Inhibition @ 1 μM (hNET)
Counter-ions that a name gives are not always drawn.
METRIC_NAME: inhibition at 1 µM (%)
Give your result in % as a bare value.

Sample answers from the record:
OC1(C(CN2CCNCC2)c2ccc(-c3cccc(OC(F)(F)F)c3)cc2)CCCCC1 (centres unmarked) [Example 171, dihydrochloride]: 32
COc1cc(C(CN2CCNCC2)C2(O)CCCCC2)ccc1OCc1ccc(C(F)(F)F)cc1 (centres unmarked) [Example 448, dihydrochloride]: 78

Consider the molecule shown here: OC1(C(CN2CCNCC2)c2cccc(OCc3ccccc3)c2)CCC1 (centres unmarked) [Example 111, dihydrochloride] What is its recorded inhibition at 1 µM? -3

Consider the molecule shown here: OC1(C(CN2CCN(CC3CCCCC3)CC2)c2ccc(OC(F)(F)F)cc2)CCCCC1 (centres unmarked) [Example 286, dihydrochloride] What is its recorded inhibition at 1 µM? 78.6

Consider the molecule shown here: C=Cc1ccc(C(CN2CCNCC2)C2(O)CCCCC2)cc1 (centres unmarked) [Example 163, dihydrochloride] What is its recorded inhibition at 1 µM? 17

From: patent US7550456B2
